Biological target: cellular PARG (Homo sapiens, UniProt Q86W56)
Construct: endogenous in cells
Sequence (Q86W56 whole entry): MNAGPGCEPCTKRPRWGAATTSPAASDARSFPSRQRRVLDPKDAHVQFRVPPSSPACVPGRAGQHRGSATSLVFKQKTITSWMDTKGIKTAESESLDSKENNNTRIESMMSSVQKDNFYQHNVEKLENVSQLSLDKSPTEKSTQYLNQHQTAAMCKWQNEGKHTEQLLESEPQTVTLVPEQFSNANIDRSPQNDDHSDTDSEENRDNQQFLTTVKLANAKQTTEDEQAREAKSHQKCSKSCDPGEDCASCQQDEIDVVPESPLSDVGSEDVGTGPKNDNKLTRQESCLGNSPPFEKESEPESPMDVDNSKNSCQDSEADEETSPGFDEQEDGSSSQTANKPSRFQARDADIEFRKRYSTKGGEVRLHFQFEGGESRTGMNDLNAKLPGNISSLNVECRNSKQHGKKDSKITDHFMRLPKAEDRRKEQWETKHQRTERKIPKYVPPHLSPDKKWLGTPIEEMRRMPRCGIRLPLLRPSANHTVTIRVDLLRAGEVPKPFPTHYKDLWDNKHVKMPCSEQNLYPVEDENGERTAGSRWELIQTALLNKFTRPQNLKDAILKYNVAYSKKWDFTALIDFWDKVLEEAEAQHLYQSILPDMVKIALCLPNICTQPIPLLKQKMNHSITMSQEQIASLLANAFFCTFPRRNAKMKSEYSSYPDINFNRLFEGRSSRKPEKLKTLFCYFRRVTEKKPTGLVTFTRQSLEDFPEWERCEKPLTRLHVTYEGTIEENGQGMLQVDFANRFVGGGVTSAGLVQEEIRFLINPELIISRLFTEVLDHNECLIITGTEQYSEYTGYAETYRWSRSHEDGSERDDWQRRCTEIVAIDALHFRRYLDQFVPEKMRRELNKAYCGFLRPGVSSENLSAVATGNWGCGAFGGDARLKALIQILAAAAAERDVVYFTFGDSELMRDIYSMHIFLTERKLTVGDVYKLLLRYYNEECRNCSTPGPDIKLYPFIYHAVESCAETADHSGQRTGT
Assay: Nuclear PAR accumulation assay (immunofluorescence high-content imaging)
Details: HeLa cells, 1 hour compound treatment then MMS 50 μg/mL for an additional hour
pIC50: −log10 of the molar value.
readout.type: pIC50

Please review the following examples before continuing.
| compound | measurement.target | pIC50 |
| --- | --- | --- |
| [2H]C([2H])(c1sc(C)nc1C)N1C(=O)c2cc(S(=O)(=O)NC3(C)CC3)ccc2N2C1=N[C@H]1COC[C@H]12 | cellular PARG (Homo sapiens, UniProt Q86W56) | ≥ 7.00 |
| CN1C(=O)c2cc(S(=O)(=O)NC3(C)CC3)ccc2N2C1=NCC2C1CC1 (stereo not drawn) | cellular PARG (Homo sapiens, UniProt Q86W56) | 6.00 to 7.00 |
| [2H]C([2H])(c1cnn(C)c1)N1C(=O)c2cc(S(=O)(=O)NC3(C)CC3)cc(C)c2N2C1=NC[C@H]2C | cellular PARG (Homo sapiens, UniProt Q86W56) | ≥ 7.00 |
| C[C@@H]1CN=C2N(CC3CC(=O)N(C)C3)C(=O)c3cc(S(=O)(=O)NC4(C)CC4)ccc3N21 (single isomer, unassigned) | cellular PARG (Homo sapiens, UniProt Q86W56) | 5.00 to 6.00 |
| CC(C)[C@H]1CN=C2N(Cc3cnn(C)c3)C(=O)c3cc(S(=O)(=O)NC4(C)CC4)ccc3N21 | cellular PARG (Homo sapiens, UniProt Q86W56) | 5.00 to 6.00 |

Recorded result, "Cc1nnc(CN2C(=O)c3cc(S(=O)(=O)NC4(C)CC4)ccc3N3C2=NC[C@H]3C)s1" , pIC50: ≥ 7.00

Recorded result, "C[C@@H]1CN=C2N(Cc3ccccc3)C(=O)c3cc(S(=O)(=O)NC4(C)CC4)ccc3N21" , pIC50: 5.00 to 6.00

Recorded result, "[2H]C([2H])(c1cnn(C)c1)N1C(=O)c2cc(S(=O)(=O)NC3(C)CC3)ccc2N2C1=N[C@H]1CCC[C@H]12" , pIC50: ≥ 7.00

Recorded result, Cn1cc(CN2C(=O)c3cc(S(=O)(=O)NC4(C)CC4)ccc3N3CC4(CCOC4)N=C23)cn1 (stereo not drawn) , pIC50: ≥ 7.00

Recorded result, "Cc1nc(C)c(CN2C(=O)c3cc(S(=O)(=O)NC4(C)CC4)ccc3N3C2=NC[C@H]3C)s1" , pIC50: ≥ 7.00

Recorded result, "Cn1cc(CN2C(=O)c3cc(S(=O)(=O)NC4(C)CC4)ccc3N3CC4(COC4)N=C23)cn1" , pIC50: 6.00 to 7.00

Recorded result, "C[C@H]1CN2C(=N1)N(Cc1cnn(C)c1)C(=O)c1cc(S(=O)(=O)NC3(C)CC3)ccc12" , pIC50: ≥ 7.00

Recorded result, "C#C[C@@H]1CN=C2N(Cc3c(C)noc3C)C(=O)c3cc(S(=O)(=O)NC4(C)CC4)ccc3N21" , pIC50: ≥ 7.00

Recorded result, C#CC1CN=C2N(C)C(=O)c3cc(S(=O)(=O)NC4(C)CC4)ccc3N21 (stereo not drawn) , pIC50: 6.00 to 7.00

Recorded result, "Cn1cc(CN2C(=O)c3cc(S(=O)(=O)NC4(C)CC4)ccc3N3C2=NCC32CCC2)cn1" , pIC50: ≥ 7.00
